Ref: paper PMC11642994

A collection of binders and their measured pKd
# targetOrSystem: T1, EhAGCK1 WT (Entamoeba histolytica AGC family kinase 1, EHI_188930), full-length recombinant His-tagged protein (Entamoeba histolytica, UniProt C4M2W0 1-433)
# T1 construct: also called His-EhAGCK1; source: E. coli C41(DE3), purified (Ni2+-NTA)
# T1 sequence: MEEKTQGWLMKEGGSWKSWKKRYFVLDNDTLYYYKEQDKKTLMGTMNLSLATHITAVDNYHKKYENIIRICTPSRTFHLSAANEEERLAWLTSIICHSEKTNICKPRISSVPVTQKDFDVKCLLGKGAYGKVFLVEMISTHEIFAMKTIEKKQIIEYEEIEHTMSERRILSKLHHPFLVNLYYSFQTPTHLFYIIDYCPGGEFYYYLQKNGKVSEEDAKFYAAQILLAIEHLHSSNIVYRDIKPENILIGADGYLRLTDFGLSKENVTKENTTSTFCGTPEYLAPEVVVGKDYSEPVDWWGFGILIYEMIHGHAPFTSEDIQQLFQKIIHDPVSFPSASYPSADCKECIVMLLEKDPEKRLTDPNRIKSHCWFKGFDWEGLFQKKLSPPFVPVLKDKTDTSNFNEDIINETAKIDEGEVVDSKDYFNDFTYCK
# testName: MST; His-tagged kinase labelled with RED-tris-NTA 2nd Generation dye, kept constant (50 nM by the legend); unlabelled peptide in 16 1:1 dilutions, 500 uM to 153 nM as printed; 50 mM Tris-Cl pH 8, 150 mM NaCl, 1 mM beta-ME, 5% glycerol; 25 C; Monolith NT.115, 50% LED, medium MST power
# conditionContext: both partners purified
pKd: −log10 of the molar value.
reportedEndpoint: pKd

1) GRPRTTSFAESCK (also called human GSK3 peptide substrate; source: synthetic peptide) [human GSK3 (HsGSK3) peptide]	5.58
2) SSPSSVPAAQSTTPVNVPK [EhRhoGEF peptide (from RhoGEF, EHI_008090)]	6.51
